Measured Kd by item
target: T1, human serum albumin (human, UniProt P02768 25-609); assay: SPR pH 6.0
T1 construct: also called HSA
Measured Quantity: Kd (nM)

1. T026301366 (bispecific antibody, not shown: small tags and cut ends, tetravalent ISVD construct; also called X-Y-FcRn(W100cS)-35GS-ALB23002) EVQLVESGGGVVQPGGSLRLSCAASGFTFSSYAMYWVRQAPGKGLEWVSAISSGGGSTDYADSVKGRFTISRDNSKNTLYLQMNSLRPEDTALYYCAADTLYTSLTSYSYWGQGTLVTVSSGGGGSGGGGSGGGGSGGGGSGGGGSGGGGSGGGGSEVQLVESGGGVVQPGGSLRLSCAASGFTFRSFGMSWVRQAPGKGPEWVSSISGSGSDTLYADSVKGRFTISRDNSKNTLYLQMNSLRPEDTALYYCTIGGSLSRSSQGTLVTVSSA : 10
2. T026301257 (bispecific antibody, not shown: small tags and cut ends, tetravalent ISVD construct; also called X-Y-FcRn-35GS-ALB23002) EVQLVESGGGVVQPGGSLRLSCAASGFTFSSYAMYWVRQAPGKGLEWVSAISSGGGSTDYADSVKGRFTISRDNSKNTLYLQMNSLRPEDTALYYCAADTLYTSLTWYSYWGQGTLVTVSSGGGGSGGGGSGGGGSGGGGSGGGGSGGGGSGGGGSEVQLVESGGGVVQPGGSLRLSCAASGFTFRSFGMSWVRQAPGKGPEWVSSISGSGSDTLYADSVKGRFTISRDNSKNTLYLQMNSLRPEDTALYYCTIGGSLSRSSQGTLVTVSSA : 14
3. T026301259 (bispecific antibody, not shown: small tags and cut ends, tetravalent ISVD construct; also called X-Y-FcRn-ALB23002) EVQLVESGGGVVQPGGSLRLSCAASGFTFSSYAMYWVRQAPGKGLEWVSAISSGGGSTDYADSVKGRFTISRDNSKNTLYLQMNSLRPEDTALYYCAADTLYTSLTWYSYWGQGTLVTVSSGGGGSGGGSEVQLVESGGGVVQPGGSLRLSCAASGFTFRSFGMSWVRQAPGKGPEWVSSISGSGSDTLYADSVKGRFTISRDNSKNTLYLQMNSLRPEDTALYYCTIGGSLSRSSQGTLVTVSSA : 9.8
4. T026301266 (other, tetravalent ISVD construct; also called X-FcRn-Y-ALB23002) VHH 1: EVQLVESGGGVVQPGGSLRLSCAASGFTFSSYAMYWVRQAPGKGLEWVSAISSGGGSTDYADSVKGRFTISRDNSKNTLYLQMNSLRPEDTALYYCAADTLYTSLTWYSYWGQGTLVTVSS VHH 2: EVQLVESGGGVVQPGGSLRLSCAASGFTFRSFGMSWVRQAPGKGPEWVSSISGSGSDTLYADSVKGRFTISRDNSKNTLYLQMNSLRPEDTALYYCTIGGSLSRSSQGTLVTVSSA : 12
